Kindly supply the reported Ki values for the records listed here.
# EXPERIMENTAL_DETAILS: Inhibition of beta-lactamase TEM-1 after 5 seconds incubation with nitrocefin substrate by spectrophotometry
Could you give me the number in nM? Just the number is fine.

Input: Tell me the measured Ki of NC(=O)[C@@H]1CC[C@@H]2CN1C(=O)N2OS(=O)(=O)O (relative stereo) , please.
Output: 260

Input: Tell me the measured Ki of `C[C@]1(Cn2ccnn2)[C@H](C(=O)O)N2C(=O)C[C@H]2S1(=O)=O` , please.
Output: 30

Input: Tell me the measured Ki of `O=C(O)[C@H]1/C(=C/CO)O[C@@H]2CC(=O)N21` , please.
Output: 800

====

# EXPERIMENTAL_SYSTEM: Beta-lactamase (Enterobacter cloacae, UniProt P05364)
# Sequence (P05364 whole entry): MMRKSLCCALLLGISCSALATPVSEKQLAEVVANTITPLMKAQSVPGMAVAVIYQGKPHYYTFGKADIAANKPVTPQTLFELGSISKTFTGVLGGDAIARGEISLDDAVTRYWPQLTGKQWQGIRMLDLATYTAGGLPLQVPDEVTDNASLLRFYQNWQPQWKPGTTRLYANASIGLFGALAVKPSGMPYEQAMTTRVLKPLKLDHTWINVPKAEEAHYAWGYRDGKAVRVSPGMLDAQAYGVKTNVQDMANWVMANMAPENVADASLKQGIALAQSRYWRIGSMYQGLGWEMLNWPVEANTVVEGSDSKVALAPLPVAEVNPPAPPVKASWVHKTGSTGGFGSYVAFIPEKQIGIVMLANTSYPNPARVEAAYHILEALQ
# EXPERIMENTAL_DETAILS: Inhibition of Enterobacter cloacae beta-lactamase P99 after 5 seconds incubation with nitrocefin substrate by spectrophotometry
OBSERVED_PROPERTY: pKi
Just so you know, pKi here is -log10 of the concentration in molar units; reply with that number alone.

Input: Tell me the measured pKi of NC(=O)[C@@H]1CC[C@@H]2CN1C(=O)N2OS(=O)(=O)O (relative stereo) , please.
Output: 5.11

====

# EXPERIMENTAL_DETAILS: Inhibition of beta-lactamase CTX-M-15 assessed as nitrocefin hydrolysis after 5 mins enzyme-compound preincubation
Kindly supply the reported pIC50 values for the records listed here.
Just so you know, pIC50 here is -log10 of the concentration in molar units; reply with that number alone.

Input: Tell me the measured pIC50 of C[C@]1(Cn2ccnn2)[C@H](C(=O)O)N2C(=O)C[C@H]2S1(=O)=O [TAZOBACTAM] , please.
Output: 8.22

Input: Tell me the measured pIC50 of NC(=O)[C@@H]1CC[C@@H]2CN1C(=O)N2OS(=O)(=O)O (relative stereo) [AVIBACTAM] , please.
Output: 8.30

Input: Tell me the measured pIC50 of CC1(C)[C@H](C(=O)O)N2C(=O)C[C@H]2S1(=O)=O [SULBACTAM] , please.
Output: 6.64

====

# EXPERIMENTAL_SYSTEM: Beta-lactamase (Enterobacter cloacae, UniProt P05364)
# EXPERIMENTAL_DETAILS: Inhibition of Enterobacter cloacae beta-lactamase P99 assessed as nitrocefin hydrolysis after 5 mins enzyme-compound preincubation
OBSERVED_PROPERTY: IC50

Input: Tell me the measured IC50 of NC(=O)[C@@H]1CC[C@@H]2CN1C(=O)N2OS(=O)(=O)O (relative stereo) , please.
Output: 100 nM

====

Kindly supply the reported IC50 values for the records listed here.
# EXPERIMENTAL_DETAILS: Inhibition of beta-lactamase SHV-4 assessed as nitrocefin hydrolysis after 5 mins enzyme-compound preincubation
Could you give me the number in nM? Just the number is fine.

Input: Tell me the measured IC50 of `C[C@]1(Cn2ccnn2)[C@H](C(=O)O)N2C(=O)C[C@H]2S1(=O)=O` , please.
Output: 55

Input: Tell me the measured IC50 of `O=C(O)[C@H]1/C(=C/CO)O[C@@H]2CC(=O)N21` , please.
Output: 4

Input: Tell me the measured IC50 of `CC1(C)[C@H](C(=O)O)N2C(=O)C[C@H]2S1(=O)=O` , please.
Output: 260

Input: Tell me the measured IC50 of NC(=O)[C@@H]1CC[C@@H]2CN1C(=O)N2OS(=O)(=O)O (relative stereo) , please.
Output: 3
